# EXPERIMENTAL_PROTOCOL: 1-month depot PK, prostate cancer patients
# Format: in vivo, human
# RUN_PARAMETERS: male, human, plasma; prostate cancer patients, 1-month depot SC 12 mg/month; read-out: Tmax (median)
Where a SMILES comes first, the peptide text is derived from it. [ ]: non-standard residue; d: D form. Arg(Me) = CNC(=N)NCCC[C@H](N)C(=O)O; Hyp = O=C(O)[C@@H]1C[C@@H](O)CN1; azaGly = NNC(=O)O

COMPOUND	Tmax / h
CC(=O)O.CNC(=N)NCCC[C@H](NC(=O)[C@H](CC(C)C)NC(=O)NNC(=O)[C@H](Cc1ccccc1)NC(=O)[C@@H](NC(=O)[C@H](CC(N)=O)NC(=O)[C@@H]1C[C@@H](O)CN1C(=O)[C@@H](Cc1ccc(O)cc1)NC(C)=O)[C@@H](C)O)C(=O)N[C@@H](Cc1c[nH]c2ccccc12)C(N)=O [API-MA] (Ac-[dY][Hyp]NTF[azaGly]L[Arg(Me)]W-NH2)	2.05

====

# EXPERIMENTAL_PROTOCOL: Pharmacokinetics in dogs after SC and IV administration
# RUN_PARAMETERS: dog, in vivo; dogs, IV 1 mg/kg; read-out: AUC(0-24)
Where a SMILES comes first, the peptide text is derived from it. [ ]: non-standard residue; d: D form. Arg(Me) = CNC(=N)NCCC[C@H](N)C(=O)O; Hyp = O=C(O)[C@@H]1C[C@@H](O)CN1; azaGly = NNC(=O)O

MOLECULE	AUC(0-t)
CC(=O)O.CNC(=N)NCCC[C@H](NC(=O)[C@H](CC(C)C)NC(=O)NNC(=O)[C@H](Cc1ccccc1)NC(=O)[C@@H](NC(=O)[C@H](CC(N)=O)NC(=O)[C@@H]1C[C@@H](O)CN1C(=O)[C@@H](Cc1ccc(O)cc1)NC(C)=O)[C@@H](C)O)C(=O)N[C@@H](Cc1c[nH]c2ccccc12)C(N)=O [API-MA] (Ac-[dY][Hyp]NTF[azaGly]L[Arg(Me)]W-NH2)	3090 ng·h/mL

====

# EXPERIMENTAL_PROTOCOL: Multiple-dose PK, 2-hour SC infusion once daily for 14 days, Japanese prostate cancer patients
# Format: in vivo, human
# RUN_PARAMETERS: male, human, in vivo, sc, 1 mg/day, Mean percent cumulative urinary excretion at 24 hours postdose
# Protocol: It was an open-label, ascending dose study of API-MA administered via 2-hour SC infusion once daily for 14 days that was expected to suppress testosterone in Japanese hormone-naïve prostate cancer patients. Six patients received API-MA at doses of 0.5 mg (3 patients) and 1.0 mg (3 patients) a day for 14 days. […]
Where a SMILES comes first, the peptide text is derived from it. [ ]: non-standard residue; d: D form. Arg(Me) = CNC(=N)NCCC[C@H](N)C(=O)O; Hyp = O=C(O)[C@@H]1C[C@@H](O)CN1; azaGly = NNC(=O)O

MOLECULE	UNITS_SYMBOL	dose excreted
CNC(=N)NCCC[C@H](NC(=O)[C@H](CC(C)C)NC(=O)NNC(=O)[C@H](Cc1ccccc1)NC(=O)[C@@H](NC(=O)[C@H](CC(N)=O)NC(=O)[C@@H]1C[C@@H](O)CN1C(=O)[C@@H](Cc1ccc(O)cc1)NC(C)=O)[C@@H](C)O)C(=O)N[C@@H](Cc1c[nH]c2ccccc12)C(N)=O [Compound 1] (Ac-[dY][Hyp]NTF[azaGly]L[Arg(Me)]W-NH2)	%	8.86

====

# EXPERIMENTAL_PROTOCOL: Multiple-dose PK, 2-hour SC infusion once daily for 14 days, Japanese prostate cancer patients
# Assay type: in vivo, human
# RUN_PARAMETERS: male, human, in vivo; 0.5 mg/day, Day 1, mean
# Method: It was an open-label, ascending dose study of API-MA administered via 2-hour SC infusion once daily for 14 days that was expected to suppress testosterone in Japanese hormone-naïve prostate cancer patients. Six patients received API-MA at doses of 0.5 mg (3 patients) and 1.0 mg (3 patients) a day for 14 days. […]
Where a SMILES comes first, the peptide text is derived from it. [ ]: non-standard residue; d: D form. Arg(Me) = CNC(=N)NCCC[C@H](N)C(=O)O; Hyp = O=C(O)[C@@H]1C[C@@H](O)CN1; azaGly = NNC(=O)O
MEASURE_NAME: MRT (h)

MOLECULE	MEASURE_NAME	VAL
CC(=O)O.CNC(=N)NCCC[C@H](NC(=O)[C@H](CC(C)C)NC(=O)NNC(=O)[C@H](Cc1ccccc1)NC(=O)[C@@H](NC(=O)[C@H](CC(N)=O)NC(=O)[C@@H]1C[C@@H](O)CN1C(=O)[C@@H](Cc1ccc(O)cc1)NC(C)=O)[C@@H](C)O)C(=O)N[C@@H](Cc1c[nH]c2ccccc12)C(N)=O [API-MA] (Ac-[dY][Hyp]NTF[azaGly]L[Arg(Me)]W-NH2)	MRT	4.78

====

# EXPERIMENTAL_PROTOCOL: Single dose PK, phase 1, healthy European men
# Type: in vivo, human
# RUN_PARAMETERS: male, human, plasma, single SC 0.01 mg, read-out: Tmax (median)
Where a SMILES comes first, the peptide text is derived from it. [ ]: non-standard residue; d: D form. Arg(Me) = CNC(=N)NCCC[C@H](N)C(=O)O; Hyp = O=C(O)[C@@H]1C[C@@H](O)CN1; azaGly = NNC(=O)O
MEASURE_NAME: Tmax (min)

COMPOUND	MEASURE_NAME	VAL
CC(=O)O.CNC(=N)NCCC[C@H](NC(=O)[C@H](CC(C)C)NC(=O)NNC(=O)[C@H](Cc1ccccc1)NC(=O)[C@@H](NC(=O)[C@H](CC(N)=O)NC(=O)[C@@H]1C[C@@H](O)CN1C(=O)[C@@H](Cc1ccc(O)cc1)NC(C)=O)[C@@H](C)O)C(=O)N[C@@H](Cc1c[nH]c2ccccc12)C(N)=O [API-MA] (Ac-[dY][Hyp]NTF[azaGly]L[Arg(Me)]W-NH2)	Tmax	30

====

# EXPERIMENTAL_PROTOCOL: Single dose PK, phase 1, healthy European men
# Format: in vivo, human
# RUN_PARAMETERS: male, human, urine, single SC 0.003 mg, geometric mean, read-out: Fe (urine)
Where a SMILES comes first, the peptide text is derived from it. [ ]: non-standard residue; d: D form. Arg(Me) = CNC(=N)NCCC[C@H](N)C(=O)O; Hyp = O=C(O)[C@@H]1C[C@@H](O)CN1; azaGly = NNC(=O)O
MEASURE_NAME: dose excreted (%)

MOLECULE	VAL
CC(=O)O.CNC(=N)NCCC[C@H](NC(=O)[C@H](CC(C)C)NC(=O)NNC(=O)[C@H](Cc1ccccc1)NC(=O)[C@@H](NC(=O)[C@H](CC(N)=O)NC(=O)[C@@H]1C[C@@H](O)CN1C(=O)[C@@H](Cc1ccc(O)cc1)NC(C)=O)[C@@H](C)O)C(=O)N[C@@H](Cc1c[nH]c2ccccc12)C(N)=O [API-MA] (Ac-[dY][Hyp]NTF[azaGly]L[Arg(Me)]W-NH2)	3.97

====

# EXPERIMENTAL_PROTOCOL: Single dose PK, phase 1, healthy European men
# Type: in vivo, human
# RUN_PARAMETERS: male, human, plasma, subcutaneous, 2-hour INF 1 mg, geometric mean, read-out: Vz/F
Where a SMILES comes first, the peptide text is derived from it. [ ]: non-standard residue; d: D form. Arg(Me) = CNC(=N)NCCC[C@H](N)C(=O)O; Hyp = O=C(O)[C@@H]1C[C@@H](O)CN1; azaGly = NNC(=O)O

COMPOUND	Vd/F / L
CC(=O)O.CNC(=N)NCCC[C@H](NC(=O)[C@H](CC(C)C)NC(=O)NNC(=O)[C@H](Cc1ccccc1)NC(=O)[C@@H](NC(=O)[C@H](CC(N)=O)NC(=O)[C@@H]1C[C@@H](O)CN1C(=O)[C@@H](Cc1ccc(O)cc1)NC(C)=O)[C@@H](C)O)C(=O)N[C@@H](Cc1c[nH]c2ccccc12)C(N)=O [API-MA] (Ac-[dY][Hyp]NTF[azaGly]L[Arg(Me)]W-NH2)	120

====

# EXPERIMENTAL_PROTOCOL: Single dose PK, phase 1, healthy European men
# Type: in vivo, human
# RUN_PARAMETERS: male, human, plasma, single SC 0.003 mg, read-out: Tmax (median)
Where a SMILES comes first, the peptide text is derived from it. [ ]: non-standard residue; d: D form. Arg(Me) = CNC(=N)NCCC[C@H](N)C(=O)O; Hyp = O=C(O)[C@@H]1C[C@@H](O)CN1; azaGly = NNC(=O)O

MOLECULE	Tmax
CC(=O)O.CNC(=N)NCCC[C@H](NC(=O)[C@H](CC(C)C)NC(=O)NNC(=O)[C@H](Cc1ccccc1)NC(=O)[C@@H](NC(=O)[C@H](CC(N)=O)NC(=O)[C@@H]1C[C@@H](O)CN1C(=O)[C@@H](Cc1ccc(O)cc1)NC(C)=O)[C@@H](C)O)C(=O)N[C@@H](Cc1c[nH]c2ccccc12)C(N)=O [API-MA] (Ac-[dY][Hyp]NTF[azaGly]L[Arg(Me)]W-NH2)	45 min
